These entries and their values trace back to patent US20070077617.

# Tested system: fusion protein PRY
# Sequence (chain, as listed by the source): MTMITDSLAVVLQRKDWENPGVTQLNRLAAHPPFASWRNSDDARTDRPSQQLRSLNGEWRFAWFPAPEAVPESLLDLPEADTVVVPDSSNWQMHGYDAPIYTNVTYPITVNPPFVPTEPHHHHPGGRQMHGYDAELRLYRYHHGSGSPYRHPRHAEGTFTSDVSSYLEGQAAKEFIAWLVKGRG
Quantity measured: relative cleavage efficiency

Protein: OmpT protease variant OmpT D97R (protein) STETLSFTPDNINADISLGTLSGKTKERVYLAEEGGRKVSQLDWKFNNAAIIKGAINWDLMPQISIGAAGWTTLGSRGGNMVDQDWMDSSNPGTWTRESRHPDTQLNYANEFDLNIKGWLLNEPNYRLGLMAGYQESRYSFTARGGSYIYSSEEGFRDDIGSFPNGERAIGYKQRFKMPYIGLTGSYRYEDFELGGTFKYSGWVESSDNDEHYDPGKRITYRSKVKDQNYYSVAVNAGYYVTPNAKVYVEGAWNRVTNKKGNTSLYDHNNNTSDYSKNGAGIENYNFITTAGLKYTF
Observed measurement: less than 3.0%
--
Protein: OmpT protease variant OmpT D97P (protein) STETLSFTPDNINADISLGTLSGKTKERVYLAEEGGRKVSQLDWKFNNAAIIKGAINWDLMPQISIGAAGWTTLGSRGGNMVDQDWMDSSNPGTWTPESRHPDTQLNYANEFDLNIKGWLLNEPNYRLGLMAGYQESRYSFTARGGSYIYSSEEGFRDDIGSFPNGERAIGYKQRFKMPYIGLTGSYRYEDFELGGTFKYSGWVESSDNDEHYDPGKRITYRSKVKDQNYYSVAVNAGYYVTPNAKVYVEGAWNRVTNKKGNTSLYDHNNNTSDYSKNGAGIENYNFITTAGLKYTF
Observed measurement: less than 3.0%
